Assay: AUC (infinity) in healthy human at 25 mg, po administered with high fat meal
Format: ADME, organism-based
Set-up: dose 25 mg, time infinity, route oral
Conditions: plasma
MEASUREMENT TYPE: AUC(0-inf) (ng·h/mL)
// return numeric value only (unit: ng·h/mL, not printed)

Ask | Using the record for COc1cnc(OC)c2c1c(C(=O)C(=O)N1CCN(C(=O)c3ccccc3)CC1)cn2COP(=O)(O)O.NCCCC[C@H](N)C(=O)O , state its measured AUC(0-inf).
Reply | 1160

---

Experiment: AUC (infinity) in high fat fed healthy human at 800 mg, po administered as capsule with high fat meal
Type: ADME, organism-based
Parameters: dose 800 mg, time infinity, route oral
Conditions: plasma
MEASUREMENT TYPE: AUC(0-inf) (ng·h/mL)
// return numeric value only (unit: ng·h/mL, not printed)

Ask | Using the record for COc1ncc(OC)c2c(C(=O)C(=O)N3CCN(C(=O)c4ccccc4)CC3)c[nH]c12 , state its measured AUC(0-inf).
Reply | 21200

---

Assay: Half life in healthy human at 100 mg, po administered with high fat meal
Type: ADME, organism-based
Conditions: in vivo
MEASUREMENT TYPE: half-life

Ask | Using the record for COc1cnc(OC)c2c1c(C(=O)C(=O)N1CCN(C(=O)c3ccccc3)CC1)cn2COP(=O)(O)O.NCCCC[C@H](N)C(=O)O , state its measured half-life.
Reply | 1.9 h

---

Assay: Cmax in healthy human at 400 mg, po administered with high fat meal
Assay type: ADME, organism-based
Design: dose 400 mg, route oral
Conditions: in vivo
MEASUREMENT TYPE: Cmax (ng/mL)
// return numeric value only (unit: ng/mL, not printed)

Ask | Using the record for COc1cnc(OC)c2c1c(C(=O)C(=O)N1CCN(C(=O)c3ccccc3)CC1)cn2COP(=O)(O)O.NCCCC[C@H](N)C(=O)O , state its measured Cmax.
Reply | 12900

---

Experiment: Half life in healthy human at 400 mg, po administered with high fat meal
Assay type: ADME, organism-based
Conditions: in vivo
MEASUREMENT TYPE: half-life (h)
// return numeric value only (unit: h, not printed)

Ask | Using the record for COc1cnc(OC)c2c1c(C(=O)C(=O)N1CCN(C(=O)c3ccccc3)CC1)cn2COP(=O)(O)O.NCCCC[C@H](N)C(=O)O , state its measured half-life.
Reply | 13

---

Experiment: Plasma concentration in high fat fed healthy human at 800 mg, po administered as capsule with high fat meal measured after 12 hrs
Type: ADME, organism-based
MEASUREMENT TYPE: concentration at 12 h (ng/mL)
// return numeric value only (unit: ng/mL, not printed)

Ask | Using the record for COc1ncc(OC)c2c(C(=O)C(=O)N3CCN(C(=O)c4ccccc4)CC3)c[nH]c12 , state its measured concentration at 12 h.
Reply | 175

---

Assay: Clearance in cynomolgus monkey at 1.3 mg/kg, iv
Assay type: ADME, organism-based, Macaca fascicularis
Set-up: dose 1.3 mg/kg, route intravenous
Conditions: in vivo
MEASUREMENT TYPE: clearance (mL/min/kg)
// return numeric value only (unit: mL/min/kg, not printed)

Ask | Using the record for COc1cnc(OC)c2c1c(C(=O)C(=O)N1CCN(C(=O)c3ccccc3)CC1)cn2COP(=O)(O)O.NCCCC[C@H](N)C(=O)O , state its measured clearance.
Reply | 4.4
